assay: Static μPET/CT imaging at 45 min p.i. of medium and long chain 18F-fatty acids (Example 2); details: static PET, 45 min p.i.

Compound | defluorination (bone uptake)
CCCCC([18F])C(=O)O (racemic) [2-[^18F]FC, 2-Fluorocaproate] | Almost no defluorination
CCCC([18F])C(=O)O (racemic) [2-[^18F]FV, 2-Fluorovalerate] | small bone uptake
CCCCCC([18F])C(=O)O (racemic) [2-[^18F]FE, 2-Fluoroenanthate] | small bone uptake
CCCCCCC([18F])C(=O)O (racemic) [2-[^18F]FCy, 2-Fluorocaprylate] | Almost no defluorination

----------
test: Static μPET/CT imaging at 45 min p.i. of medium and long chain 18F-fatty acids (Example 2); details: 45 min p.i.; includes earlier short chain data

Molecule | brain uptake
CCC([18F])C(=O)O (racemic) [2-[^18F]FB, 2-[^18F]Fluorobutyrate] | High brain uptake
CCCC([18F])C(=O)O (racemic) [2-[^18F]FV, 2-Fluorovalerate] | High brain uptake
CCCCCCC([18F])C(=O)O (racemic) [2-[^18F]FCy, 2-Fluorocaprylate] | significantly reduced
O=C(O)C[18F] [[^18F]FA, [^18F]Fluoroacetate] | High brain uptake
CCCCCCCCCCCCCCC([18F])C(=O)O (racemic) [2-[^18F]FPalm, 2-[^18F]Fluorohexadecanoic acid] | significantly reduced
CC([18F])C(=O)O (racemic) [2-[^18F]FP, 2-[^18F]Fluoropropionate] | High brain uptake
